Molecular target: HLA-A*02:03
Assay: IEDB peptide-MHC binding, purified MHC/competitive/radioactivity; filed as Kd, often an IC50 or EC50 that approximates it; bounds were set here for any values at or beyond the usual limits of such assays
Settings: source organism: Human immunodeficiency virus type 1 (isolate YU2)
result type: Kd
A complete answer gives the number and then names the unit.

Challenge: Any idea what Kd was measured for LTFGWCFKL ?
Response given: 4.55 µM

---

Molecular target: HLA-A*02:06
Experiment: IEDB peptide-MHC binding, purified MHC/competitive/radioactivity; bounds were set here for any values at or beyond the usual limits of such assays
Conditions: source organism: Human immunodeficiency virus type 1 (isolate YU2)
Please provide measured pIC50 for the entries that follow.
One number for each entry, as −log10 of the molar value.

Some entries whose results are on file:
Challenge: Any idea what pIC50 was measured for RILQQLLFI ?
Response given: 7.43

Challenge: Also check LLQLTVWGI
Response given: 7.61

Challenge: Also check VLAEAMSQV
Response given: 6.94

Challenge: Also check MASDFNLPPV
Response given: 7.47

Challenge: Also check LTFGWCFKL
Response given: 6.69

Challenge: Also check KMIGGIGGFI
Response given: 6.11

Hello, I would appreciate it if you could give pIC50 for each entry below.
1. KAACWWAGI
2. AIIRILQQL

Response given:
6.79
7.41
